Target: H3K4ac peptide (Homo sapiens)
Construct: H3 1-7=H2N-ARTKQTAY-COOH; made in house; host or cells: chemical solid-phase peptide synthesis
Assay: fluorescence indicator displacement assay, solution-phase affinity for H3K4ac peptide
Type: binding
Details: 10 mM phosphate buffer at pH 7.4; average of triplicate determinations; indicator displacement assay; read-out: Solution-phase equilibrium dissociation constant (Kd), H3K4ac
Experimental: In this example, the activity of various compound embodiments described herein were evaluated. A calixarene parent compound and compounds 502 and 404 were evaluated. […] The solution-phase affinities of a calixarene parent compound, and compounds 502 and 404 were determined for various methyllysine and methylarginine containing peptides by fluorescence indicator displacement assay (Table 1). […]
Measured quantity: pKd
Conceptually, pKd converts a concentration in mol/L into minus its log10.

Q: GET /values?readout=pKd&system=H3K4ac peptide (Homo sapiens)&item= O=C(O)c1ccc(S(=O)(=O)Nc2cc3c(O)c(c2)Cc2cc(S(=O)(=O)O)cc(c2O)Cc2cc(S(=O)(=O)O)cc(c2O)Cc2cc(S(=O)(=O)O)cc(c2O)C3)cc1
Result: 5.12

----------
Target: UniProt:P68431
Measured quantity: Kd (nM)
Give the value, in units of nM, as a plain number.

Q: If you can, please state the reported Kd value of O=C(O)c1ccc(S(=O)(=O)Nc2cc3c(O)c(c2)Cc2cc(S(=O)(=O)O)cc(c2O)Cc2cc(S(=O)(=O)O)cc(c2O)Cc2cc(S(=O)(=O)O)cc(c2O)C3)cc1 .
Result: 1300

----------
Target: H3K4me2 peptide (Homo sapiens)
Measured quantity: pKd
Note on pKd: it is the negative log10 of concentration, concentration in mol/L.

Q: Give recorded pKd with H3K4me2 peptide (Homo sapiens) for the following molecule: O=C(O)Cc1ccc(-c2cc3c(O)c(c2)Cc2cc(S(=O)(=O)O)cc(c2O)Cc2cc(S(=O)(=O)O)cc(c2O)Cc2cc(S(=O)(=O)O)cc(c2O)C3)cc1
Result: 7.00

----------
Molecular target: H3R2me2s peptide (Homo sapiens)
Measured quantity: Kd (µM)
Express your answer in µM, writing the number without its unit.

Q: Hi! What's the reported Kd for O=C(O)c1ccc(S(=O)(=O)Nc2cc3c(O)c(c2)Cc2cc(S(=O)(=O)O)cc(c2O)Cc2cc(S(=O)(=O)O)cc(c2O)Cc2cc(S(=O)(=O)O)cc(c2O)C3)cc1 on H3R2me2s peptide (Homo sapiens)?
Result: 2.6

These entries and their values trace back to patent US10338037B2.
